Each recorded value in this set is attributed to paper PMC4072508.

STUDY SYSTEM: T1, Mcl-1, Q07820
T1 chain: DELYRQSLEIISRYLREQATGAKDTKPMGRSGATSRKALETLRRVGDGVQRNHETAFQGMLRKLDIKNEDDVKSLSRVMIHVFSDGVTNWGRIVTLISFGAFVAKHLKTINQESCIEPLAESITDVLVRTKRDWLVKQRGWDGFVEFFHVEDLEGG
TEST SUMMARY: peptide SPOT array, c-Myc-tagged receptor at 1 uM or 100 nM, anti-c-Myc-Cy3
Rule: measured SPOT signal as a fraction of Bim BH3's signal on the same receptor and array below 0.05 gets true (1); anything equal to or greater than 0.05 gets false (0).

In the record for RKDAELLCWDDRQSGYPLWSLGREVT [WRAP53] , is SPOT signal as a fraction of Bim BH3's signal on the same receptor and array less than 0.05?
true (1)

Check if SPOT signal as a fraction of Bim BH3's signal on the same receptor and array falls below 0.05 for FGEYSGISENDILVGDDFWIPETSFI [ROS1] .
true (1)

Lab note: SPOT signal as a fraction of Bim BH3's signal on the same receptor and array threshold 0.05. Does this binder come in strictly under it? SGEFARICRDLSHILDAVVISCAKDG [PCNA]
true (1)

Criterion: SPOT signal as a fraction of Bim BH3's signal on the same receptor and array strictly below 0.05. Is it met by KLALEQRCREDRARGRRLEETLPRRI [KIF19] ?
false (0)

Is the reported SPOT signal as a fraction of Bim BH3's signal on the same receptor and array for VAGYRESAAFLLRSADELENLILQQN [NOL4] strictly below 0.05?
true (1)

SPOT signal as a fraction of Bim BH3's signal on the same receptor and array strictly < 0.05 for this binder? DDMFEPHSWNLKELLDDCFQQWGVRP [PRCP]
true (1)

Consider the binder GSPDSMFGISDAVLGDLNQDGFPDIA [ITGA7] . Is its SPOT signal as a fraction of Bim BH3's signal on the same receptor and array strictly less than 0.05?
true (1)

Problem: For the binder EQWAREIGAQLRRMADDLNAQYERRR [BBC3] , is SPOT signal as a fraction of Bim BH3's signal on the same receptor and array under 0.05?
false (0)

Please check: SPOT signal as a fraction of Bim BH3's signal on the same receptor and array for RGAMLSLATGLAHSGSDLSLLVPEIE [FAM115A] , strictly under 0.05 or not?
false (0)

Does this binder meet the criterion SPOT signal as a fraction of Bim BH3's signal on the same receptor and array < 0.05? RAKASSLSEEDKHFADGLETDGTLQK [DSN1]
true (1)

hey, is SPOT signal as a fraction of Bim BH3's signal on the same receptor and array for KKSLAGAAQILLKGAERLTKSVTENQ [MED17] lower than 0.05 or not?
true (1)

Given QLSKPGAALYLQSILEGFKEAVQYVL [SOS1] , is recorded SPOT signal as a fraction of Bim BH3's signal on the same receptor and array strictly lower than 0.05?
true (1)

Take the binder RVSWNITGTVLASSLDDGCVRLWKAN [SEH1L] and say whether its SPOT signal as a fraction of Bim BH3's signal on the same receptor and array is less than 0.05.
false (0)
